I'd be grateful if you could share measured Ki for these entries.
tested.target: Apelin receptor (Rattus norvegicus, UniProt Q9JHG3)
Sequence (Q9JHG3 whole entry): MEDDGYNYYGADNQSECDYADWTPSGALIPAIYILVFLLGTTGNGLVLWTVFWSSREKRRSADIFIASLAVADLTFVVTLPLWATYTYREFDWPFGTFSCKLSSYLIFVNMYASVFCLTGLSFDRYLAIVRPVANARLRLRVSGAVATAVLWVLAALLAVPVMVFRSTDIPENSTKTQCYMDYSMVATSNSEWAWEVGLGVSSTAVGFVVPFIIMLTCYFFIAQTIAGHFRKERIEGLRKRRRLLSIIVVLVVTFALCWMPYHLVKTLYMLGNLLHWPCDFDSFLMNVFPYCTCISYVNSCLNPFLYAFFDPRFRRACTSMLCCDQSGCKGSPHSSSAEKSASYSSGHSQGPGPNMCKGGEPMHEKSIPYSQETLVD
Non-standard residues stand in square brackets, D forms with d. Residues, ends and D or L forms follow the SMILES beside them. Phe(4-Br) = N[C@@H](Cc1ccc(Br)cc1)C(=O)O; NMeCha = CN[C@@H](CC1CCCCC1)C(=O)O; hArg = N=C(N)NCCCC[C@H](N)C(=O)O; Nle = CCCC[C@H](N)C(=O)O; Aib = CC(C)(N)C(=O)O
Express the result in nM but write the number alone.

Task: Recorded Ki for CCCC[C@H](NC(=O)[C@@H]1CCCN1C(=O)CNC(=O)[C@H](CCCCN)NC(=O)[C@H](Cc1c[nH]cn1)NC(=O)[C@H](CO)NC(=O)[C@H](CC(C)C)NC(=O)[C@H](CCCCNC(=N)N)NC(=O)[C@@H]1CCCN1C(=O)[C@H](CCCNC(=N)N)NC(=O)[C@H](CCC(N)=O)NC(=O)[C@H](CCCNC(=N)N)NC(=O)[C@H](CCCNC(=N)N)NC(=O)[C@H](Cc1ccccc1)NC(=O)[C@@H](N)CCCCN)C(=O)NC(C)(C)C(=O)N[C@@H](Cc1ccc(Br)cc1)C(=O)O (H-KFRRQRP[hArg]LSHKGP[Nle][Aib][Phe(4-Br)]-OH) , please?
Output: 0.832

Task: Recorded Ki for CCCC[C@H](NC(=O)[C@@H]1CCCN1C(=O)CNC(=O)[C@H](CCCCN)NC(=O)[C@H](Cc1c[nH]cn1)NC(=O)[C@H](CO)NC(=O)[C@H](CC1CCCCC1)N(C)C(=O)[C@H](CCCNC(=N)N)NC(=O)[C@@H]1CCCN1C(=O)[C@H](CCCNC(=N)N)NC(=O)[C@H](CCC(N)=O)NC(=O)[C@H](CCCNC(=N)N)NC(=O)[C@H](CCCNC(=N)N)NC(=O)[C@H](Cc1ccccc1)NC(=O)[C@@H](N)CCCCN)C(=O)NC(C)(C)C(=O)N[C@@H](Cc1ccc(Br)cc1)C(=O)O (H-KFRRQRPR[NMeCha]SHKGP[Nle][Aib][Phe(4-Br)]-OH) , please?
Output: 2

Task: Recorded Ki for CCCC[C@H](NC(=O)[C@@H]1CCCN1C(=O)CNC(=O)[C@H](CCCCN)NC(=O)[C@H](Cc1c[nH]cn1)NC(=O)[C@H](CO)NC(=O)[C@H](CC1CCCCC1)NC(=O)[C@H](CCCNC(=N)N)NC(=O)[C@@H]1CCCN1C(=O)[C@H](CCCNC(=N)N)NC(=O)[C@@H]1CCC(=O)N1)C(=O)NC(C)(C)C(=O)N[C@@H](Cc1ccc(Br)cc1)C(=O)O , please?
Output: 0.575

====

tested.target: Apelin receptor (Homo sapiens)
Sequence (P35414 whole entry): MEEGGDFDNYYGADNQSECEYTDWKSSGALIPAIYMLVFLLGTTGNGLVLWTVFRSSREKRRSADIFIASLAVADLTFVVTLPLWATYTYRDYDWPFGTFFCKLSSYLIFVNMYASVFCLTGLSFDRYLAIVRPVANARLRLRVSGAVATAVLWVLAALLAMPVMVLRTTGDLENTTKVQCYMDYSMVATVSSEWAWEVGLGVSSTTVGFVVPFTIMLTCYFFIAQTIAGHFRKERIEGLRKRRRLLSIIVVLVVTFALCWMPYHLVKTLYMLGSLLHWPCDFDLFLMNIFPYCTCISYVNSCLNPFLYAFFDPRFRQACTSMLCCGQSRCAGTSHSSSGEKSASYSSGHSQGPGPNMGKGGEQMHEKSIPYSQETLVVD
protocol.notes: Activation of recombinant human APJ receptor expressed in rat Chem-5 cells assessed as increase in Ca2+ mobilization by FLIPR Calcium 6-QF fluorescent dye based assay
Non-standard residues stand in square brackets, D forms with d. Residues, ends and D or L forms follow the SMILES beside them. Phe(4-Br) = N[C@@H](Cc1ccc(Br)cc1)C(=O)O; NMeL = CN[C@@H](CC(C)C)C(=O)O; Nle = CCCC[C@H](N)C(=O)O; Aib = CC(C)(N)C(=O)O
test.readout: EC50 (nM)
Express the result in nM but write the number alone.

Task: Recorded EC50 for CCCC[C@H](NC(=O)[C@@H]1CCCN1C(=O)CNC(=O)[C@H](CCCCN)NC(=O)[C@H](Cc1c[nH]cn1)NC(=O)[C@H](CO)NC(=O)[C@H](CC(C)C)N(C)C(=O)[C@H](CCCNC(=N)N)NC(=O)[C@@H]1CCCN1C(=O)[C@H](CCCNC(=N)N)NC(=O)[C@H](CCC(N)=O)NC(=O)[C@H](CCCNC(=N)N)NC(=O)[C@H](CCCNC(=N)N)NC(=O)[C@H](Cc1ccccc1)NC(=O)[C@@H](N)CCCCN)C(=O)NC(C)(C)C(=O)N[C@@H](Cc1ccc(Br)cc1)C(=O)O (H-KFRRQRPR[NMeL]SHKGP[Nle][Aib][Phe(4-Br)]-OH) , please?
Output: 2.75

====

I'd be grateful if you could share measured half-life for these entries.
tested.target: Neprilysin (NEP) (Homo sapiens, UniProt P08473)
Sequence (P08473 whole entry): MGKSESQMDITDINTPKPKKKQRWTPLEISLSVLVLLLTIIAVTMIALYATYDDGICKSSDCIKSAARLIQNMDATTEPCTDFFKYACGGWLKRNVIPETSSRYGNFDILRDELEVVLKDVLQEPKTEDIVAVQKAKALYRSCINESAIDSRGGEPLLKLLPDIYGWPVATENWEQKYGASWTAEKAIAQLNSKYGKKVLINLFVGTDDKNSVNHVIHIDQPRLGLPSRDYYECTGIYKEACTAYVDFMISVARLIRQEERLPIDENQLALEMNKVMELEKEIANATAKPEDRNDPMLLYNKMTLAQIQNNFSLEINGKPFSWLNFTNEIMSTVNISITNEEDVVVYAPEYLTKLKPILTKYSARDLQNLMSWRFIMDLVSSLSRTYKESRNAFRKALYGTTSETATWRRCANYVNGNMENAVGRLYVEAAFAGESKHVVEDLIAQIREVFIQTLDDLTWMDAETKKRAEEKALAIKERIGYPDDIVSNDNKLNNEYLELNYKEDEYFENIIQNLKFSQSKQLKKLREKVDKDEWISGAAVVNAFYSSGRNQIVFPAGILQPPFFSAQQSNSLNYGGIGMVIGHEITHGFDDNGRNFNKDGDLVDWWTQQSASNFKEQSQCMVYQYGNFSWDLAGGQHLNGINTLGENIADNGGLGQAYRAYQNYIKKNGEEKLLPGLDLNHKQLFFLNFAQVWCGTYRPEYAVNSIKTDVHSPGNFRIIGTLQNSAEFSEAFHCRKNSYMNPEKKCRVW
protocol.notes: Proteolytic stability assessed as recombinant human NEP-mediated compound degradation by measuring half life incubated for 24 hrs by LC-MS analysis
Format: ADME
measurement.parameters: recombinant human neprilysin (NEP)
Non-standard residues stand in square brackets, D forms with d. Residues, ends and D or L forms follow the SMILES beside them. Phe(4-Br) = N[C@@H](Cc1ccc(Br)cc1)C(=O)O; hArg = N=C(N)NCCCC[C@H](N)C(=O)O; Cha = N[C@@H](CC1CCCCC1)C(=O)O; Nle = CCCC[C@H](N)C(=O)O; Aib = CC(C)(N)C(=O)O
Express the result in h but write the number alone.

Task: Recorded half-life for CCCC[C@H](NC(=O)[C@@H]1CCCN1C(=O)CNC(=O)[C@H](CCCCN)NC(=O)[C@H](Cc1c[nH]cn1)NC(=O)[C@H](CO)NC(=O)[C@H](CC1CCCCC1)NC(=O)[C@H](CCCCNC(=N)N)NC(=O)[C@@H]1CCCN1C(=O)[C@H](CCCNC(=N)N)NC(=O)[C@@H]1CCC(=O)N1)C(=O)NC(C)(C)C(=O)N[C@@H](Cc1ccc(Br)cc1)C(=O)O , please?
Output: 21.9

Task: Recorded half-life for CCCC[C@H](NC(=O)[C@@H]1CCCN1C(=O)CNC(=O)[C@H](CCCCN)NC(=O)[C@H](Cc1c[nH]cn1)NC(=O)[C@H](CO)NC(=O)[C@H](CC(C)C)NC(=O)[C@H](CCCCNC(=N)N)NC(=O)[C@@H]1CCCN1C(=O)[C@H](CCCNC(=N)N)NC(=O)[C@H](CCC(N)=O)NC(=O)[C@H](CCCNC(=N)N)NC(=O)[C@H](CCCNC(=N)N)NC(=O)[C@H](Cc1ccccc1)NC(=O)[C@@H](N)CCCCN)C(=O)NC(C)(C)C(=O)N[C@@H](Cc1ccc(Br)cc1)C(=O)O (H-KFRRQRP[hArg]LSHKGP[Nle][Aib][Phe(4-Br)]-OH) , please?
Output: 40.6

Task: Recorded half-life for CCCC[C@H](NC(=O)[C@@H]1CCCN1C(=O)CNC(=O)[C@H](CCCCN)NC(=O)[C@H](Cc1c[nH]cn1)NC(=O)[C@H](CO)NC(=O)[C@H](CC(C)C)N(C)C(=O)[C@H](CCCNC(=N)N)NC(=O)[C@@H]1CCCN1C(=O)[C@H](CCCNC(=N)N)NC(=O)[C@@H]1CCC(=O)N1)C(=O)NC(C)(C)C(=O)N[C@@H](Cc1ccc(Br)cc1)C(=O)O , please?
Output: 40.3

Task: Recorded half-life for CCCC[C@H](NC(=O)[C@@H]1CCCN1C(=O)CNC(=O)[C@H](CCCCN)NC(=O)[C@H](Cc1c[nH]cn1)NC(=O)[C@H](CO)NC(=O)[C@H](CC1CCCCC1)NC(=O)[C@H](CCCNC(=N)N)NC(=O)[C@@H]1CCCN1C(=O)[C@H](CCCNC(=N)N)NC(=O)[C@@H]1CCC(=O)N1)C(=O)NC(C)(C)C(=O)N[C@@H](Cc1ccc(Br)cc1)C(=O)O , please?
Output: 22.1

Task: Recorded half-life for CCCC[C@H](NC(=O)[C@@H]1CCCN1C(=O)CNC(=O)[C@H](CCCCN)NC(=O)[C@H](Cc1c[nH]cn1)NC(=O)[C@H](CO)NC(=O)[C@H](CC(C)C)NC(=O)[C@H](CCCNC(=N)N)NC(=O)[C@@H]1CCCN1C(=O)[C@H](CCCNC(=N)N)NC(=O)[C@@H]1CCC(=O)N1)C(=O)NC(C)(C)C(=O)N[C@@H](Cc1ccc(Br)cc1)C(=O)O , please?
Output: 10.3

Task: Recorded half-life for CCCC[C@H](NC(=O)[C@@H]1CCCN1C(=O)CNC(=O)[C@H](CCCCN)NC(=O)[C@H](Cc1c[nH]cn1)NC(=O)[C@H](CO)NC(=O)[C@H](CC1CCCCC1)NC(=O)[C@H](CCCCNC(=N)N)NC(=O)[C@@H]1CCCN1C(=O)[C@H](CCCNC(=N)N)NC(=O)[C@H](CCC(N)=O)NC(=O)[C@H](CCCNC(=N)N)NC(=O)[C@H](CCCNC(=N)N)NC(=O)[C@H](Cc1ccccc1)NC(=O)[C@@H](N)CCCCN)C(=O)NC(C)(C)C(=O)N[C@@H](Cc1ccc(Br)cc1)C(=O)O (H-KFRRQRP[hArg][Cha]SHKGP[Nle][Aib][Phe(4-Br)]-OH) , please?
Output: 46.4

Task: Recorded half-life for CCCC[C@H](NC(=O)[C@@H]1CCCN1C(=O)CNC(=O)[C@H](CCCCN)NC(=O)[C@H](Cc1c[nH]cn1)NC(=O)[C@H](CO)NC(=O)[C@H](CC(C)C)NC(=O)[C@H](CCCCNC(=N)N)NC(=O)[C@@H]1CCCN1C(=O)[C@H](CCCNC(=N)N)NC(=O)[C@@H]1CCC(=O)N1)C(=O)NC(C)(C)C(=O)N[C@@H](Cc1ccc(Br)cc1)C(=O)O , please?
Output: 19

Task: Recorded half-life for CCCC[C@H](NC(=O)[C@@H]1CCCN1C(=O)CNC(=O)[C@H](CCCCN)NC(=O)[C@H](Cc1c[nH]cn1)NC(=O)[C@H](CO)NC(=O)[C@H](CC1CCCCC1)NC(=O)[C@H](CCCNC(=N)N)NC(=O)[C@@H]1CCCN1C(=O)[C@H](CCCNC(=N)N)NC(=O)[C@H](CCC(N)=O)NC(=O)[C@H](CCCNC(=N)N)NC(=O)[C@H](CCCNC(=N)N)NC(=O)[C@H](Cc1ccccc1)NC(=O)[C@@H](N)CCCCN)C(=O)NC(C)(C)C(=O)N[C@@H](Cc1ccc(Br)cc1)C(=O)O (H-KFRRQRPR[Cha]SHKGP[Nle][Aib][Phe(4-Br)]-OH) , please?
Output: 47

From: ChEMBL document CHEMBL5233202
